Measured pIC50 on human cannabis CB1 receptor (Homo sapiens, UniProt P21554) follows.
Sequence (P21554 whole entry): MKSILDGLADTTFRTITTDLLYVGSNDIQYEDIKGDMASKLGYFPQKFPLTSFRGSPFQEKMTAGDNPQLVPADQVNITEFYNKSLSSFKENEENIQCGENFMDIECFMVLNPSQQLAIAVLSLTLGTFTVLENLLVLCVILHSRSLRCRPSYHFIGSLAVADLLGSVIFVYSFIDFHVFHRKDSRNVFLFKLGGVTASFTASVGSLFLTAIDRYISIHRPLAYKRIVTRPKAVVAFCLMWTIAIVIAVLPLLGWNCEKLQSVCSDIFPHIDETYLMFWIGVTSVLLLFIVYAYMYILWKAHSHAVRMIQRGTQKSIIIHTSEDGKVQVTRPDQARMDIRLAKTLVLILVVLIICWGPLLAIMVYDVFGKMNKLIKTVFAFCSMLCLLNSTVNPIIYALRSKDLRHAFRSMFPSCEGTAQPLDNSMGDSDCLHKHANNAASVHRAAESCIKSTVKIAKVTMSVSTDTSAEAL
Field pIC50 (float): negative decimal logarithm of the concentration in molar.

The measured pIC50 that O=C(c1cc2c(cc1F)OC1(O2)c2ccc(Cl)cc2CCc2cc(Cl)ccc21)N1CCOCC1 [Example 1] showed for human cannabis CB1 receptor (Homo sapiens, UniProt P21554) is 7.89

Attention now turns to another entry.
Value sought: pIC50, system human cannabis CB1 receptor (Homo sapiens, UniProt P21554), item O=C(c1ccc2c(c1)OC1(O2)c2ccc(Cl)cc2CCc2cc(Cl)ccc21)C1CCNCC1 [Example 2] . Result: 7.74
